studySystem: T1, human Activin A (R&D Systems) (human, UniProt P08476 311-426)
T1 sequence (looked up): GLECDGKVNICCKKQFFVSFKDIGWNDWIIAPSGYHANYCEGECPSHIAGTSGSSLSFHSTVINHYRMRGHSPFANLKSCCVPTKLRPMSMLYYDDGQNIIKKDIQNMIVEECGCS
procedureSummary: cell-based or functional assay

binder	ARE-luciferase IC50 [nM]
2522_C09 (designed binder) MGVSDVPRDLEVVAATPTSLLISWEVPRGLARYYRITYGETGGNSPVQEFTVLGRGSTATISGLKPGVDYTITVYAVTVYRDGPLLLAPISINYRTEIDKPSQHHHHHH	1000
2987_F06 (designed binder) MGVSDVPRDLEVVAATPTSLLISWSLPHAGHAHYYRITYGETGGNSPVQEFTVPGRGVTATISGLKPGVDYTITVYAVTLTKSKVIHYMPISINYRTEIDKPSQHHHHHH	538
